experiment: Antimicrobial activity against Francisella tularensis subsp. holarctica after 48 hrs by broth microdilution method; type: functional
Each record here notes measured MIC50.

Use these answered entries as a reference point.
CC[C@H]1OC(=O)[C@H](C)[C@@H](O[C@H]2C[C@@](C)(OC)[C@@H](O)[C@H](C)O2)[C@H](C)[C@@H](O[C@@H]2O[C@H](C)C[C@H](N(C)C)[C@H]2O)[C@](C)(O)C[C@@H](C)C(=O)[C@H](C)[C@@H](O)[C@]1(C)O :: 2 µg/mL
C[C@H]1c2cccc(O)c2C(=O)C2=C(O)[C@]3(O)C(=O)C(C(N)=O)=C(O)[C@@H](N(C)C)[C@@H]3[C@@H](O)[C@@H]21.O :: 1 µg/mL
CN[C@@H]1[C@H](O[C@H]2[C@H](O[C@H]3[C@H](O)[C@@H](O)[C@H](N=C(N)N)[C@@H](O)[C@@H]3N=C(N)N)O[C@@H](C)[C@]2(O)C=O)O[C@@H](CO)[C@H](O)[C@H]1O :: 1 µg/mL

Ask: Tell me its MIC50 given C[C@H]1COc2c(N3CCN(C)CC3)c(F)cc3c(=O)c(C(=O)O)cn1c23.C[C@H]1COc2c(N3CCN(C)CC3)c(F)cc3c(=O)c(C(=O)O)cn1c23.O as the entry.
Reply: 0.03 µg/mL

Ask: Tell me its MIC50 given O=C(N[C@H](CO)[C@H](O)c1ccc([N+](=O)[O-])cc1)C(Cl)Cl as the entry.
Reply: 2 µg/mL

Ask: Tell me its MIC50 given O=C(O)c1cn(C2CC2)c2cc(N3CCNCC3)c(F)cc2c1=O as the entry.
Reply: 0.03 µg/mL

Ask: Tell me its MIC50 given CN(C)[C@@H]1C(O)=C(C(N)=O)C(=O)[C@@]2(O)C(O)=C3C(=O)c4c(O)cccc4[C@@](C)(O)[C@H]3C[C@@H]12 as the entry.
Reply: 0.5 µg/mL

---

Each record here notes measured MIC90.
experiment: Antimicrobial activity against Francisella tularensis subsp. holarctica after 48 hrs by broth microdilution method; format: functional
Note: unit µg/mL is implicit; provide only the numeric part.

Use these answered entries as a reference point.
C[C@H]1COc2c(N3CCN(C)CC3)c(F)cc3c(=O)c(C(=O)O)cn1c23.C[C@H]1COc2c(N3CCN(C)CC3)c(F)cc3c(=O)c(C(=O)O)cn1c23.O :: 0.06
CN[C@@H]1[C@H](O[C@H]2[C@H](O[C@H]3[C@H](O)[C@@H](O)[C@H](N=C(N)N)[C@@H](O)[C@@H]3N=C(N)N)O[C@@H](C)[C@]2(O)C=O)O[C@@H](CO)[C@H](O)[C@H]1O :: 2
O=C(O)c1cn(C2CC2)c2cc(N3CCNCC3)c(F)cc2c1=O :: 0.06

Ask: Tell me its MIC90 given C[C@H]1c2cccc(O)c2C(=O)C2=C(O)[C@]3(O)C(=O)C(C(N)=O)=C(O)[C@@H](N(C)C)[C@@H]3[C@@H](O)[C@@H]21.O as the entry.
Reply: 2

Ask: Tell me its MIC90 given O=C(N[C@H](CO)[C@H](O)c1ccc([N+](=O)[O-])cc1)C(Cl)Cl as the entry.
Reply: 2

Ask: Tell me its MIC90 given CN(C)[C@@H]1C(O)=C(C(N)=O)C(=O)[C@@]2(O)C(O)=C3C(=O)c4c(O)cccc4[C@@](C)(O)[C@H]3C[C@@H]12 as the entry.
Reply: 1

Ask: Tell me its MIC90 given CC[C@H]1OC(=O)[C@H](C)[C@@H](O[C@H]2C[C@@](C)(OC)[C@@H](O)[C@H](C)O2)[C@H](C)[C@@H](O[C@@H]2O[C@H](C)C[C@H](N(C)C)[C@H]2O)[C@](C)(O)C[C@@H](C)C(=O)[C@H](C)[C@@H](O)[C@]1(C)O as the entry.
Reply: 2
